# credit: paper PMC7749166

Biological target: T1, C5aRΔTyr mutant (Y11F and Y14F), reconstituted in DOPC/CHS liposomes (human, UniProt P21730 1-350, Y11F | Y14F)
T1 construct: C5a anaphylatoxin chemotactic receptor 1 (C5aR), human; lack of tyrosine sulfonation validated by western blot; The methods print the mutations as 'Y11F and F14F'; the results print Y11F and Y14F; also called C5aR∆Tyr; source: HEK-293S GnTI- cells (BacMam), purified, reconstituted in DOPC/CHS liposomes
T1 sequence (looked up): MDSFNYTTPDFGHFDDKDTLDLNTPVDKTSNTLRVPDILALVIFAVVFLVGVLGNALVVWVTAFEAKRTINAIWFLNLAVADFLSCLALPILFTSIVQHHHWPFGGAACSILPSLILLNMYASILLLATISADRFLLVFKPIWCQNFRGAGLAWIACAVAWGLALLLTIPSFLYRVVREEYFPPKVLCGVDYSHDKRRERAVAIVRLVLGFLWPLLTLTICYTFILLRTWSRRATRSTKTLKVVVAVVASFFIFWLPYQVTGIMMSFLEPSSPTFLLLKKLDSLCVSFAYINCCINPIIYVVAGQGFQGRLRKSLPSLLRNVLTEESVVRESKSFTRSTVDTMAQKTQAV
Test: AFM dynamic force spectroscopy (FV- and FD-based AFM, Friddle-Noy-de Yoreo fit); C5a tethered by its N-terminal His6-tag to a tris-NTA-Ni2+ PEG27 tip; C5aR (wild type, mutant, or wild type incubated with PMX53) in DOPC/CHS liposomes adsorbed on mica; imaging buffer 20 mM HEPES, 300 mM NaCl; ≈24 °C; Kd calculated from ΔGbu = kbT × ln(0.018 Kd)
Conditions: both partners purified
valueType: Kd

complement C5a anaphylatoxin with N-terminal His6-tag (ligand, human, UniProt P01031 678-751, looked up, C5a anaphylatoxin, the 74-amino acid cut product of complement C5; numbers count on: C5a itself (R74 is its C-terminal residue); Tethered by its His6-tag to a tris-NTA-Ni2+ PEG27 AFM tip; C5a from R&D Systems is named only for the GTPgammaS assay; also called C5a ligand; endogenous C5a ligand; not shown: His6, N-terminal, kept) TLQKKIEEIAAKYKHSVVKKCCYDGACVNNDETCEQRAARISLGPRCIKAFTECCVVASQLRANISHKDMQLGR ... ~20 mM
